- Tgt: T1, monkey TIM-3 protein with hFc tag (cTIM-3-hFc protein) (monkey; human)
- T1 construct: Made in HEK293 cells; also called monkey TIM-3 extracellular domain protein; not shown: human IgG Fc fragment (hFc) of the pCpC vector
- T1 chain: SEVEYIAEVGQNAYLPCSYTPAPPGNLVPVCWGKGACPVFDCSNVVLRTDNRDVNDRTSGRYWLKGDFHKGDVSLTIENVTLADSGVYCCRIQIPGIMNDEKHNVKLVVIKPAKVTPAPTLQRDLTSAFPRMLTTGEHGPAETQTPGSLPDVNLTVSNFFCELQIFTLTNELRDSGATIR
- Assay info: ELISA, coated cTIM-3-hFc; antibody 0.0001 nM
Each item that follows carries a reported OD450.
The reply should be a number, written without any unit.

1. 18D2H2 (TIM-3 antibody purified from hybridoma, chimeric antibody of Example 2) (antibody, V domains shown, From hybridoma of Harbour H2L2 transgenic mice: human variable regions, rat constant regions) VH: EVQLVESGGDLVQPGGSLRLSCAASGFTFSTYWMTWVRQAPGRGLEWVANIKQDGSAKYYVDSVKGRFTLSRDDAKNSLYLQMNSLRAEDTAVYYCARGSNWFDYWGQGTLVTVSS VL: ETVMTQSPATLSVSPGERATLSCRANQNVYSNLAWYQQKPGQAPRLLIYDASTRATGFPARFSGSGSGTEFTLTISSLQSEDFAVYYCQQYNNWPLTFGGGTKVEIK    0.53

Field: next binder
The measured OD450 associated with 39E5H1 (TIM-3 antibody purified from hybridoma, chimeric antibody of Example 2) (antibody, V domains shown, From hybridoma of Harbour H2L2 transgenic mice: human variable regions, rat constant regions) VH: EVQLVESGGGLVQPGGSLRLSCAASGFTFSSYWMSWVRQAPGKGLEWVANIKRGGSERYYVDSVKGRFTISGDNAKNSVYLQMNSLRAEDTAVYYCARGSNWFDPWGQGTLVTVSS VL: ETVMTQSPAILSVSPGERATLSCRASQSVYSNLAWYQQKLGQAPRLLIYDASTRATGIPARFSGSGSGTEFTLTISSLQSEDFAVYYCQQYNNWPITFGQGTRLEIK reads 0.57
